Source of measurements: patent US10513521B2

tested.system: UniProt:P36894
Sequence (P36894 24-532): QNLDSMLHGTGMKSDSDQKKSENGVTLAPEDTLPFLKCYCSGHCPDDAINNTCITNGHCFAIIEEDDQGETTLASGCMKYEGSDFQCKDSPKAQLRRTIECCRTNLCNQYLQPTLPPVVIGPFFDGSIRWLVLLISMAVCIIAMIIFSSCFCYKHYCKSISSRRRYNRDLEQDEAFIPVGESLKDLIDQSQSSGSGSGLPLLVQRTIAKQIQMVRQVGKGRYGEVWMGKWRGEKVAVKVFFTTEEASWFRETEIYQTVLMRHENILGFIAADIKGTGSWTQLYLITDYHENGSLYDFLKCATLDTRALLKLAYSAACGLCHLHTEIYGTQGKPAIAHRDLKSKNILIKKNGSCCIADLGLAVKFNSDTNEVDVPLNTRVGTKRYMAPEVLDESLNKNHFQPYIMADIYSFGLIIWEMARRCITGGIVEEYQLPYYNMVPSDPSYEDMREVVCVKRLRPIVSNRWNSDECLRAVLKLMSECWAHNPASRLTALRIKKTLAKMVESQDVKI
test.name: TR-FRET enzymatic ALK kinase assay, ALK3
attribute.measured: IC50 (nM)

{"compound": "CS(=O)(=O)c1cccc(-c2cnn3cc(-c4ccc(OC5(CN6CCC(O)C6)CC5)cc4)cnc23)c1 (stereo not shown)", "reading.unit": "nM", "limit.sign": "=", "numeric.readout": 970}
{"compound": "N/C(=N/O)c1ccc(-c2cnn3cc(-c4ccc(N5CCNCC5)cc4)cnc23)c2ccccc12", "reading.unit": "nM", "limit.sign": "=", "numeric.readout": 1340}
{"compound": "NS(=O)(=O)c1ccc(-c2cnn3cc(-c4ccc(CCN5CCCCC5)cc4)cnc23)c2ccccc12", "reading.unit": "nM", "limit.sign": ">", "numeric.readout": 10000}
{"compound": "CC(O)c1cccc(-c2cnn3cc(-c4ccc(C5CCNCC5)cc4)cnc23)c1 (stereo not shown)", "reading.unit": "nM", "limit.sign": "=", "numeric.readout": 3300}
